Assay read-out IC50; system under study: WRN helicase (His-WRN527-072) (Homo sapiens, UniProt Q14191).
Sequence (Q14191 527-1072 limits assumed): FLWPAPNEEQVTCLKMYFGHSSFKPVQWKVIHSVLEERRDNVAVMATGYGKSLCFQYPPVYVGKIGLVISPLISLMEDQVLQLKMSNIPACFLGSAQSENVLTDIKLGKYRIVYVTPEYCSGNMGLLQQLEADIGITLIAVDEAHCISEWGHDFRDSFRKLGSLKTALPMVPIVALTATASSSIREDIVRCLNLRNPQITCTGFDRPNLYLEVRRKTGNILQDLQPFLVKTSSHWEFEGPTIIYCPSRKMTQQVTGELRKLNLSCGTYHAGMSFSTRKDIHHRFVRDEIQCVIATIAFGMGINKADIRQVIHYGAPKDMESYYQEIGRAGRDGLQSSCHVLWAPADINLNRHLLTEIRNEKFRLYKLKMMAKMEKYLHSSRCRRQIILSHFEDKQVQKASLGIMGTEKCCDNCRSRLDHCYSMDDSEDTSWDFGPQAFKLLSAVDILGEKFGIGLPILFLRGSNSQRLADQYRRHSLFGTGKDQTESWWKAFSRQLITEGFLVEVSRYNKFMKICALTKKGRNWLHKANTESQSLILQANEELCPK
Return type: number; implicit unit nM.

Example molecules with recorded IC50:
MOLECULE	STUDY TARGET	ATTRIBUTE MEASURED	ENDPOINT VALUE
CCc1c(N2CC3CCC(C2)N3C(=O)c2ncccc2O)c(=O)n2nc(C3=CCC(OC)CC3)nc2n1CC(=O)Nc1ccc(C(F)(F)F)cc1C (stereo not drawn) [Compound 202]	WRN helicase (His-WRN527-072) (Homo sapiens, UniProt Q14191)	IC50	7
CCc1c(N2C3CCC2CN(C(=O)c2ncnc(C)c2O)C3)c(=O)n2nc(-c3cnn(C)c3)nc2n1CC(=O)Nc1ccc(C(F)(F)F)cc1C [Compound 208]	WRN helicase (His-WRN527-072) (Homo sapiens, UniProt Q14191)	IC50	6.2
CCc1c(N2CC3CC(C2)N3C(=O)c2ncnc(C)c2O)c(=O)n2nc(C3=CCOCC3)nc2n1CC(=O)Nc1ccc(C(F)(F)F)cc1C [Compound 187]	WRN helicase (His-WRN527-072) (Homo sapiens, UniProt Q14191)	IC50	8.6

Consider the molecule CCc1c(N2CC3CCC(C2)N3C(=O)c2ncccc2O)c(=O)n2nc(C3=CCOCC3)nc2n1CC(=O)Nc1ccc(C(F)(F)F)nc1Cl [Compound 8] . State its measured IC50. 5.9

Consider the molecule CCc1c(N2CC3CCC(C2)N3C(=O)c2ncccc2O)c(=O)n2nc(C3=CCOCC3)nc2n1CC(=O)Nc1ccc(Cl)c(C(F)(F)F)c1 [Compound 199] . State its measured IC50. 9.3

Consider the molecule CCc1c(N2CC3CCC(C2)N3C(=O)c2ncccc2O)c(=O)n2nc(-c3cnn(C)c3)nc2n1CC(=O)Nc1ccc(C(F)(F)F)cc1C [Compound 204] . State its measured IC50. 7.1

====

Assay read-out IC50; system under study: WRN helicase (His-WRN527-072) (Homo sapiens, UniProt Q14191).
Return type: number; implicit unit nM.

Example compounds with recorded IC50:
COMPOUND	IC50 [nM]
CCc1c(N2CC3CCC(C2)N3C(=O)c2ncccc2O)c(=O)n2nc(C3=CCN(CC(F)F)CC3)nc2n1CC(=O)Nc1ccc(C(F)(F)F)cc1C [Compound 203]	8.7
CCc1c(N2CCC(NC(=O)c3ncnc(C)c3O)C2)c(=O)n2nc(C3=CCOCC3)nc2n1CC(=O)Nc1ccc(C(F)(F)F)cc1C (stereo not drawn) [Compound 23]	6.3

Below: the item to evaluate.
Fill in IC50 for CCc1c(N2CCN(C(=O)c3ncnc(C)c3O)CC2)c(=O)n2nc(C3C4COCC43)nc2n1CC(=O)Nc1ccc(C(F)(F)F)cc1Cl (stereo not drawn) [Compound 192] tested with WRN helicase (His-WRN527-072) (Homo sapiens, UniProt Q14191). 8.4
